# EXPERIMENTAL SYSTEM: Neprilysin (Rattus norvegicus, UniProt P07861)
# MEASUREMENT NOTES: Compound was tested for inhibitory activity against neutral endopeptidase (NEP)
pIC50: −log10 of the molar value.
RESULT TYPE: pIC50

{"MOLECULE": "CC(C)CC(NC(=O)[C@H](CCCCNC(=O)OCc1ccccc1)NS(C)(=O)=O)P(=O)(O)CC(C)C(=O)N[C@@H](Cc1c[nH]c2ccccc12)C(=O)O (stereo partly specified)", "RESULT TYPE": "pIC50", "VALUE MEASURED": 6.43}

----------
# EXPERIMENTAL SYSTEM: Neprilysin (Rattus norvegicus) (UniProt P07861)
# Sequence (P07861 whole entry): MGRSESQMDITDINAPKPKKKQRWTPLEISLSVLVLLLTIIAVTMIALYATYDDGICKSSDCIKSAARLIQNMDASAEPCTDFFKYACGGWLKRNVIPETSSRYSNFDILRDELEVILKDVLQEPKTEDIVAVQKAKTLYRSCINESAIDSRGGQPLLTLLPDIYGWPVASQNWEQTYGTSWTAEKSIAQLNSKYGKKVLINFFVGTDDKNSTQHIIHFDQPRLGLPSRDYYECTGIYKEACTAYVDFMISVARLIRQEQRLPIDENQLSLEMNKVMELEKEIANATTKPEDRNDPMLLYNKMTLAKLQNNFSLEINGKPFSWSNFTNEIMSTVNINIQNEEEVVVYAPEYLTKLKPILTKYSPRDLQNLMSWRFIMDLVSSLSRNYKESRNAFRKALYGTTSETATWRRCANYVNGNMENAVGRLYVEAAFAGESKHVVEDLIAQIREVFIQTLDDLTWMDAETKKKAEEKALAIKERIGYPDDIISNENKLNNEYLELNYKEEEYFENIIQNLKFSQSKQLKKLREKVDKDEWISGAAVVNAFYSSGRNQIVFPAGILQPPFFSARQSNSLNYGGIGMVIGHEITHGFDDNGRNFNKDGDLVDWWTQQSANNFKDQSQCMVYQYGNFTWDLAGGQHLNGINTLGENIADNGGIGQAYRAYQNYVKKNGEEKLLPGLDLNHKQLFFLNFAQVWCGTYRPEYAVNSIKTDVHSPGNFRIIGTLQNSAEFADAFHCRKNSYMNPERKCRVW
# MEASUREMENT NOTES: Compound was tested for inhibitory activity against neutral endopeptidase (NEP) at concentration 300 nM

{"COMPOUND": "CC(C)C(CP(=O)(O)C(Cc1ccccc1)NC(=O)[C@H](CCCCNC(=O)OCc1ccccc1)NS(C)(=O)=O)C(=O)N[C@@H](Cc1c[nH]c2ccccc12)C(=O)O (some centres undefined)", "inhibition / %": 19}
{"COMPOUND": "CC(C)CC(CP(=O)(O)C(Cc1ccc2ccccc2c1)NC(=O)[C@H](CCCCN)NS(C)(=O)=O)C(=O)N[C@@H](Cc1c[nH]c2ccccc12)C(=O)O (some centres undefined)", "inhibition / %": 18}
{"COMPOUND": "CC(C)CC(CP(=O)(O)C(Cc1ccccc1)NC(=O)[C@H](CC(C)C)NC(=O)OCc1ccccc1)C(=O)N[C@@H](Cc1c[nH]c2ccccc12)C(=O)O (some centres undefined)", "inhibition / %": 9}
{"COMPOUND": "CC(C)CC(CP(=O)(O)C(Cc1ccc2ccccc2c1)NC(=O)[C@H](CCCCNC(=O)OCc1ccccc1)NS(C)(=O)=O)C(=O)N[C@@H](Cc1c[nH]c2ccccc12)C(=O)O (some centres undefined)", "inhibition / %": 13}

----------
# EXPERIMENTAL SYSTEM: Neprilysin (Rattus norvegicus, UniProt P07861)
# MEASUREMENT NOTES: compound was tested for inhibitory activity against neutral endopeptidase (NEP)
Overview of reported IC50 across a group of compounds:

{"COMPOUND": "CC(C)CC(CP(=O)(O)C(CC(C)C)NC(=O)[C@H](CCCCNC(=O)OCc1ccccc1)NS(C)(=O)=O)C(=O)N[C@@H](Cc1c[nH]c2ccccc12)C(=O)O (some centres not stated)", "IC50": "320 nM"}
{"COMPOUND": "CC(C)C(CP(=O)(O)C(Cc1ccccc1)NC(=O)[C@H](CCCCN)NS(C)(=O)=O)C(=O)N[C@@H](Cc1c[nH]c2ccccc12)C(=O)O (some centres not stated)", "IC50": "800 nM"}
